B1: ZNF8 (parent)
chain: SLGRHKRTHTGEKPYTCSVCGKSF

Variants of: B1
Experiment notes: protein stability index of a GFP-peptide fusion (GPS, HEK-293T) (PSI 1-6); higher = more stable;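 note: lentivirally expressed fusions sorted by FACS into six bins by GFP to DsRed ratio, PSI derived from sequencing read proportions per bin multiplied by bin number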
Measurement context: c terminus: a fixed tail appended
Reported values of protein stability index for individual entries

- Sequence change: "K6L"
  protein stability index: 2.04
- Sequence change: "K22L"
  protein stability index: 2.36
- Sequence change: "K22M"
  protein stability index: 2.07
- Sequence change: "C17V"
  protein stability index: 3.58
- Sequence change: "C17Q"
  protein stability index: 3.76
- Sequence change: "C20S"
  protein stability index: 4
- Sequence change: "Y15C"
  protein stability index: 3.79
- Sequence change: "T16F"
  protein stability index: 3.04
- Sequence change: "R4G"
  protein stability index: 3.44
- Sequence change: "C20V"
  protein stability index: 3.13
- Sequence change: "S23D"
  protein stability index: 3.3
- Sequence change: "S1R"
  protein stability index: 2.82
- Sequence change: "V19M"
  protein stability index: 2.7
- Sequence change: "G21C"
  protein stability index: 2
- Sequence change: "T8E"
  protein stability index: 2.97
- Sequence change: "S1D"
  protein stability index: 3.4
- Sequence change: "G3T"
  protein stability index: 3.28
- Sequence change: "H5F"
  protein stability index: 1.82
- Sequence change: "G11S"
  protein stability index: 2.79
- Sequence change: "P14Q"
  protein stability index: 3
- Sequence change: "R4N"
  protein stability index: 3.1
- Sequence change: "S1T"
  protein stability index: 2.94
- Sequence change: "G3V"
  protein stability index: 3.78
- Sequence change: "H5Q"
  protein stability index: 2.84
- Sequence change: "R7Y"
  protein stability index: 2.96
- Sequence change: "F24T"
  protein stability index: 2.24
- Sequence change: "H5I"
  protein stability index: 3.34
- Sequence change: "R7I"
  protein stability index: 3.39
- Sequence change: "V19Y"
  protein stability index: 2.64
- Sequence change: "P14H"
  protein stability index: 2.89
- Sequence change: "V19S"
  protein stability index: 3.04
- Sequence change: "R7M"
  protein stability index: 2.44
- Sequence change: "S23E"
  protein stability index: 3.03
- Sequence change: "K22D"
  protein stability index: 3.01
- Sequence change: "G21N"
  protein stability index: 2.98
- Sequence change: "T8P"
  protein stability index: 2.64
- Sequence change: "V19E"
  protein stability index: 2.42
- Sequence change: "S18E"
  protein stability index: 3.38
- Sequence change: "T10W"
  protein stability index: 2.33
- Sequence change: "L2A"
  protein stability index: 2.71
- Sequence change: "K6M"
  protein stability index: 2.38
- Sequence change: "L2C"
  protein stability index: 4.3
- Sequence change: "T8V"
  protein stability index: 2.68
- Sequence change: "E12A"
  protein stability index: 2.7
- Sequence change: "G21D"
  protein stability index: 3.11
- Sequence change: "S18L"
  protein stability index: 2.44
- Sequence change: "H5R"
  protein stability index: 3.03
- Sequence change: "S18K"
  protein stability index: 2.98
- Sequence change: "C17E"
  protein stability index: 3.77
- Sequence change: "G21Y"
  protein stability index: 1.92
- Sequence change: "H9T"
  protein stability index: 2.78
- Sequence change: "H5E"
  protein stability index: 3.15
- Sequence change: "C20N"
  protein stability index: 3.51
- Sequence change: "H5W"
  protein stability index: 2.46
- Sequence change: "H5C"
  protein stability index: 3.77
- Sequence change: "P14V"
  protein stability index: 3.18
- Sequence change: "H5P"
  protein stability index: 2.78
- Sequence change: "K13D"
  protein stability index: 2.34
- Sequence change: "E12P"
  protein stability index: 3.28
- Sequence change: "Y15A"
  protein stability index: 2.58
- Sequence change: "C20G"
  protein stability index: 3.18
- Sequence change: "H9Y"
  protein stability index: 3.15
- Sequence change: "S23K"
  protein stability index: 3.3
- Sequence change: "G21A"
  protein stability index: 2.35
- Sequence change: "R4F"
  protein stability index: 2.57
- Sequence change: "E12W"
  protein stability index: 2.2
- Sequence change: "T10R"
  protein stability index: 2.32
- Sequence change: "C17R"
  protein stability index: 2.75
- Sequence change: "P14C"
  protein stability index: 2.73
- Sequence change: "Y15P"
  protein stability index: 2.29
- Sequence change: "G11W"
  protein stability index: 3.56
- Sequence change: "L2I"
  protein stability index: 2.99
- Sequence change: "K22V"
  protein stability index: 2.48
- Sequence change: "T8S"
  protein stability index: 3.02
- Sequence change: "V19W"
  protein stability index: 1.88
- Sequence change: "H9C"
  protein stability index: 2.59
- Sequence change: "T8D"
  protein stability index: 3.45
- Sequence change: "S1E"
  protein stability index: 3.94
- Sequence change: "C17L"
  protein stability index: 2.33
- Sequence change: "R4M"
  protein stability index: 2.5
- Sequence change: "F24V"
  protein stability index: 3.27
- Sequence change: "G11R"
  protein stability index: 2.53
- Sequence change: "S23C"
  protein stability index: 2.48
- Sequence change: "H9M"
  protein stability index: 2.59
- Sequence change: "L2R"
  protein stability index: 2.04
- Sequence change: "G11L"
  protein stability index: 2.42
- Sequence change: "Y15N"
  protein stability index: 2.33
- Sequence change: "V19C"
  protein stability index: 3.68
- Sequence change: "T10M"
  protein stability index: 2.74
- Sequence change: "S18F"
  protein stability index: 2.08
- Sequence change: "S1W"
  protein stability index: 1.5
